The values you see were collected from patent US9493420B2.

target: recombinant human serotonin (hSERT) transporter (Homo sapiens, UniProt P31645); construct: expressed in transfected cells; host or cells: HEK cells expressing hSERT; assay: Inhibition of [3H]neurotransmitter uptake, hSERT; assay type: cell-based
Sequence (P31645 whole entry): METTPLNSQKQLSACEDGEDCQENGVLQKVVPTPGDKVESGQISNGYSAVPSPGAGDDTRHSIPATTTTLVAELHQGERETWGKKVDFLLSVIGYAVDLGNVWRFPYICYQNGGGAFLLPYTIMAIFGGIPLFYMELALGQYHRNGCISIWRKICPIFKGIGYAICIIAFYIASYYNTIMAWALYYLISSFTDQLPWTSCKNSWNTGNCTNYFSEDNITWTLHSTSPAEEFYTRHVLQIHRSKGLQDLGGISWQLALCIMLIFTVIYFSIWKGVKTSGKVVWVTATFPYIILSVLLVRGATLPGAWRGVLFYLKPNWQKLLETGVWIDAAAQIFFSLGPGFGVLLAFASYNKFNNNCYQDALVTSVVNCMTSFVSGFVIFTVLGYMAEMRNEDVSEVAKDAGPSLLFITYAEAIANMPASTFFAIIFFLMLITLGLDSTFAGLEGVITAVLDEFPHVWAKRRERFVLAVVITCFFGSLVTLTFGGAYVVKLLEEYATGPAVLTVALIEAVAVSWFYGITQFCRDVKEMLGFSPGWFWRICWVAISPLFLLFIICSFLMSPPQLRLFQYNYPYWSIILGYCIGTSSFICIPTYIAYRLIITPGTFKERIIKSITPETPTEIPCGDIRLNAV
PROPERTY_LABEL: IC50 (nM)
Report only the number, with the unit nM understood.

The examples below pair each entry with its known result.
CN(CCCNc1ccnc2cc(Cl)ccc12)CCCN1c2ccccc2CCc2ccccc21: 230
Clc1ccc2c(NCCCN3CCCN(C4c5ccccc5-c5ccccc54)CC3)ccnc2c1: 965

Lookup: Which IC50 value is on record for Clc1ccc2c(NCCCN3CCCN(C(c4ccccc4)c4ccccc4)CC3)ccnc2c1 ?
Found: 1160

* * *

Cytotoxicity for assorted molecules
system: mitogen-induced murine spleen lymphocytes; format: cell-based; conditions: LC50; mouse spleen lymphocytes; 72 hours + 24 hours resazurin
Report only the number, with the unit nM understood.

The examples below pair each entry with its known result.
Fc1ccc(C(c2ccc(F)cc2)N2CCN(CCCNc3ccnc4cc(Cl)ccc34)CC2)cc1: 4100
CN(CCCN1c2ccccc2CCc2ccccc21)CCNc1ccnc2cc(Cl)ccc12: 1400
Clc1ccc2c(NCCN3CCCN(C4c5ccccc5-c5ccccc54)CC3)ccnc2c1: 2500
Clc1ccc2c(NCCN3CCCN(C(c4ccccc4)c4ccccc4)CC3)ccnc2c1: 5300
Clc1ccc(C(c2ccccc2)N2CCCN(CCCNc3ccnc4cc(Cl)ccc34)CC2)cc1 (stereo not drawn): 900
Clc1ccc(C(c2ccccc2)N2CCN(CCNc3ccnc4cc(Cl)ccc34)CC2)cc1 (stereo not drawn): 1400

Lookup: Query the reported Cytotoxicity for mitogen-induced murine spleen lymphocytes; item: Clc1ccc(C(c2ccccc2)N2CCN(CCCNc3ccnc4cc(Cl)ccc34)CC2)cc1 (stereo not drawn)
Found: 800

Lookup: Now this one: Clc1ccc2c(NCCCNCCCN(Cc3ccccc3)Cc3ccccc3)ccnc2c1
Found: 700

Lookup: Now this one: CN(CCCNc1ccnc2cc(Cl)ccc12)CCCN1c2ccccc2CCc2ccccc21
Found: 700

* * *

biological target: recombinant human norepinephrine (hNET) transporter (Homo sapiens); construct: expressed in transfected cells; host or cells: HEK cells expressing hNET; assay: Inhibition of [3H]neurotransmitter uptake, hNET; type: cell-based
Sequence (P23975 whole entry): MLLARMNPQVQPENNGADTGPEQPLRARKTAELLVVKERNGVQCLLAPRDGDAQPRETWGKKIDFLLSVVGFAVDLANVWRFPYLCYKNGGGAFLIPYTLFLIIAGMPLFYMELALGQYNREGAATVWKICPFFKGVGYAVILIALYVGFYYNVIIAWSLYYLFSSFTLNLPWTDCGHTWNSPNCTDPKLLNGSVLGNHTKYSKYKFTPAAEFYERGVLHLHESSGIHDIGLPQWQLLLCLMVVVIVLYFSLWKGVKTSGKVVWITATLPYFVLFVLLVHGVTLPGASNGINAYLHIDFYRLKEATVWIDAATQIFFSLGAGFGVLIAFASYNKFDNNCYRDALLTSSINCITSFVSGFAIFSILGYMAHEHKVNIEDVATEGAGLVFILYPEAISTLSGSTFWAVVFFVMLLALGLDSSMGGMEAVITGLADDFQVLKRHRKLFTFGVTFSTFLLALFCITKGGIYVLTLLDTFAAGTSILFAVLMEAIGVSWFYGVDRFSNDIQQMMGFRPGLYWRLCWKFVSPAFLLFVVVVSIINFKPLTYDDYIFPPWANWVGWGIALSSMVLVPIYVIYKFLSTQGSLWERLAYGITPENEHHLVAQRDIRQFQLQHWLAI
PROPERTY_LABEL: IC50 (nM)
Report only the number, with the unit nM understood.

Lookup: Query the reported IC50 for recombinant human norepinephrine (hNET) transporter (Homo sapiens); item: Clc1ccc2c(NCCCN3CCCN(C4c5ccccc5-c5ccccc54)CC3)ccnc2c1
Found: 550

Lookup: Now this one: CN(CCCNc1ccnc2cc(Cl)ccc12)CCCN1c2ccccc2CCc2ccccc21
Found: 350

Lookup: Now this one: Clc1ccc2c(NCCCN3CCCN(C(c4ccccc4)c4ccccc4)CC3)ccnc2c1
Found: 660

* * *

test system: Dd2 (CQ^R) P. falciparum strain; assay: In vitro fluorescence (Sybr Green I) growth inhibition assay, Dd2 strain; format: cell-based; conditions: Plasmodium falciparum, DD2, 72 h
PROPERTY_LABEL: IC50 (nM)
Report only the number, with the unit nM understood.

Lookup: Which IC50 value is on record for CCN(CC)CCCC(C)Nc1ccnc2cc(Cl)ccc12 (stereo not shown) ?
Found: 102

* * *

system: mitogen-induced murine spleen lymphocytes; format: cell-based; conditions: LC50; mouse spleen lymphocytes; 72 hours + 24 hours resazurin
Cytotoxicity for assorted molecules

Clc1ccc2c(NCCCN3CCC(=C4c5ccccc5C=Cc5ccccc54)CC3)ccnc2c1: 1100 nM

Here is the next item to consider.
Lookup: Which Cytotoxicity value is on record for Clc1ccc2c(NCCCN3CCN(C(c4ccccc4)c4ccccc4)CC3)ccnc2c1 ?
Found: 1100 nM
